For each of the molecules below, state its pEC50.
- Tested on: lung cancer cell line Calu-6
- test-name: MTT assay of cellular proliferation, Calu-6
- Format: cell-based
- run-parameters: Homo sapiens, read-out: EC50: Concentration that inhibits 50% of proliferation
pEC50: −log10 of the molar value.

COC(=O)c1cc(Oc2ncccc2-c2ccnc(N)n2)cc(C(=O)OC)c1 | 6.00 to 9.00
COC(=O)c1cc(Oc2ncccc2-c2ccncc2)cc(C(=O)OC)c1 | 6.00 to 9.00
COC(=O)c1cc(OC)cc(Oc2ncccc2-c2ccnc(N)n2)c1 | 6.00 to 9.00
COc1cc(OC)cc(Oc2ncccc2-c2ccnc(N)n2)c1 | 6.00 to 9.00

Now look at this entry.
So what does the record say about pEC50 for COC(=O)c1cc(OC)cc(Oc2ncccc2-c2ccncc2)c1 ?
6.00 to 9.00

----------
Kindly state minimal effective concentration for each of the entries shown.
- System: lung cancer cell line NCI-H23
- test-name: Minimal effective concentration that elicits polyploidy, NCI-H23
- Assay type: cell-based
- run-parameters: Homo sapiens, read-out: MECP: Minimal effective concentration that elicits polyploidy

Answered examples (2):
COC(=O)c1cc(OC)cc(Oc2ncccc2-c2ccnc(N)n2)c1 | 0.001 to 1 µM
COC(=O)c1cc(Oc2ncccc2-c2ccncc2)cc(C(=O)OC)c1 | 0.001 to 1 µM

Then this compound:
Would you kindly share the measured minimal effective concentration for CNC(=O)c1cc(Oc2ncccc2-c2ccnc(OC)c2)cc(OC(F)(F)F)c1 ?
0.001 to 1 µM

----------
- Test system: lung cancer cell line NCI-H23
- test-name: MTT assay of cellular proliferation, NCI-H23
- Format: cell-based
- run-parameters: Homo sapiens, read-out: EC50: Concentration that inhibits 50% of proliferation
test-readout: EC50

Please report EC50 for every entry that follows.
1. COC(=O)c1cc(Oc2ncccc2-c2ccnc(N)n2)cc(C(=O)OC)c1
2. COc1cc(OC)cc(Oc2nccnc2-c2ccnc(OC)c2)c1
3. COC(=O)c1cc(OC)cc(Oc2ncccc2-c2ccncc2)c1
4. COc1cc(NC(C)=O)cc(Oc2ncccc2-c2ccnc(OC)c2)c1

1. 1 to 1000 nM
2. 1 to 1000 nM
3. 1 to 1000 nM
4. 1 to 1000 nM

Kindly give each listed record's EC50.
1. COc1cc(OC)cc(Oc2ncccc2-c2ccnc(OC)c2)c1
2. CCOc1cc(Oc2ncccc2-c2ccnc(C)c2)cc(C(=O)NC)c1
3. COc1cc(OC)cc(Oc2ncccc2-c2ccnc(C)c2)c1
4. COc1cc(NC(C)=O)cc(Oc2ncccc2-c2ccnc(C)c2)c1
5. COc1cc(OC)cc(Oc2ncccc2-c2ccnc(N)n2)c1

1. 1 to 1000 nM
2. 1 to 1000 nM
3. 1 to 1000 nM
4. 1 to 1000 nM
5. 1 to 1000 nM

----------
- System: gastric cancer cell line NCI-N87
- test-name: MTT assay of cellular proliferation, NCI-N87
- Format: cell-based
- run-parameters: Homo sapiens, read-out: EC50: Concentration that inhibits 50% of proliferation
test-readout: EC50

For orientation, consider the following solved cases.
COc1cc(OC)cc(Oc2ncccc2-c2ccnc(C)c2)c1 | 0.001 to 1 µM
CNC(=O)c1cc(Oc2ncccc2-c2ccncc2)cc(OC(F)(F)F)c1 | 0.001 to 1 µM
COC(=O)c1cc(OC)cc(Oc2ncccc2-c2ccnc(N)n2)c1 | 0.001 to 1 µM
COc1cc(OC)cc(Oc2ncccc2-c2cc(C)ncn2)c1 | 0.001 to 1 µM

For the 4 molecules below, give their EC50 values.
1. CNC(=O)c1cc(Oc2ncccc2-c2ccnc(OC)c2)cc(OC(F)(F)F)c1
2. COc1cc(NC(C)=O)cc(Oc2ncccc2-c2ccncc2)c1
3. CNC(=O)c1cc(OC)cc(Oc2ncccc2-c2ccnc(Cl)c2)c1
4. COC(=O)c1cc(Oc2ncccc2-c2ccncc2)cc(C(=O)OC)c1

1. 0.001 to 1 µM
2. 0.001 to 1 µM
3. 0.001 to 1 µM
4. 0.001 to 1 µM

What EC50 value was documented for this molecule, COc1cc(Oc2ncccc2-c2ccnc(C)c2)cc(-n2cccn2)c1 ?
0.001 to 1 µM
